# System: TAB109
# experimentDescription: qHTS profiling for inhibitors of Plasmodium falciparum proliferation (AID 504749); also: nearly all actives have a fitted effect of over 60% in size
# conditionDetails: P. falciparum in erythrocytes, SYBR Green DNA, 72 h; series mostly up to 28.7 µM
Results filed as inconclusive are left out. The source made the active and inactive calls. Calls follow the shape of the dose curve; as a rule, active = well fitted inhibition curve with a large enough effect; inconclusive = small, poorly fitted or top-dose-only effect; inactive = flat fitted curve, though single readings scatter.
Possible outcomes: 1 (active), 0 (inactive)

compound	groupLabel
C[C@@H]1[C@H](O)[C@@H](C)/C=C/C=C/C=C/C=C/C=C/C=C/C=C/[C@H](O[C@@H]2O[C@H](C)[C@@H](O)[C@H](N)[C@@H]2O)C[C@@H]2O[C@](O)(C[C@@H](O)C[C@@H](O)[C@H](O)CC[C@@H](O)C[C@@H](O)CC(=O)O[C@H]1C)C[C@H](O)[C@H]2C(=O)O	0
CN1C[C@H](C(=O)N[C@]2(C)O[C@@]3(O)C4CCCN4C(=O)[C@H](Cc4ccccc4)N3C2=O)C[C@@H]2c3cccc4[nH]cc(c34)C[C@H]21 (stereo partly specified)	1
N[C@H](Cc1ccc(O)c(O)c1)C(=O)O	0
CN1C(=O)CCC1c1cccnc1 (stereo unspecified)	0
COc1ccc(CCNC[C@@H](O)c2ccc(O)cc2)cc1OC	0
CO[C@H]1/C=C/O[C@@]2(C)Oc3c(C)c(O)c4c(O)c(c(/C=N\N5CCN(C6CCCC6)CC5)c(O)c4c3C2=O)NC(=O)/C(C)=C\C=C\[C@H](C)[C@H](O)[C@@H](C)[C@@H](O)[C@@H](C)[C@H](OC(C)=O)[C@@H]1C	1

----------
# systemName: Ubiquitin carboxyl-terminal hydrolase 2 (Homo sapiens)
# experimentDescription: qHTS for Inhibitors of Ubiquitin-specific Protease USP2a Using CHOP2 as the Reporter: K484 Substrate (AID 652173);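 also: cleavage of internally quenched K48 di-ubiquitin substrate measured as rising fluorescence over time; nearly all actives have a fitted effect of over 70% in size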
# conditionDetails: USP2 cleavage of DiUb K48 IQF substrate, fluorescence; series mostly up to 57.5 µM
Results filed as inconclusive are left out. Active and inactive are the calls of the source. Calls follow the shape of the dose curve; as a rule, active = well fitted inhibition curve with a large enough effect; inconclusive = small, poorly fitted or top-dose-only effect; inactive = flat fitted curve, though single readings scatter.
Possible outcomes: Y (active), N (inactive)

> print(dat)
                                   compound  grouplabel
1  Cc1ccc(S(=O)(=O)Nc2cncc(C(=O)Nc3nc(-c4ccccc4)cs3)c2)cc1           Y
2  Cc1ccc(S(=O)(=O)Nc2cnccc2C(=O)Nc2nc(C3CCC3)cs2)cc1           Y
3  N#Cc1ccc(N[S+](=O)([O-])c2ccc(Nc3nc(-c4ccccc4)cs3)cc2)cc1           N
4  COc1ccc(NS(=O)(=O)c2ccc(C)cc2)c(C(=O)Nc2nc(-c3ccccc3)cs2)c1           Y
5  Cc1ccc(S(=O)(=O)Nc2ccc(F)cc2C(=O)Nc2nc(-c3ccccc3)cs2)cc1           Y
6  O=C(Cc1nc2ccc(Cl)cc2[nH]1)Nc1ccc(S(=O)(=O)Nc2nccs2)cc1           Y
7  CCCC1CCC(C(=O)Nc2ccc(S(=O)(=O)Nc3nccs3)cc2)CC1 (centres undefined)           Y
8  Cc1ccc(S(=O)(=O)Nc2cnccc2C(=O)Nc2ccc(-c3nc4ccccc4[nH]3)cc2)cc1           Y
9  Cc1ccc(C(=O)Nc2ccccc2C(=O)Nc2nc(-c3ccccc3)cs2)cc1           Y

----------
# Tested on: PC26
# experimentDescription: qHTS profiling for inhibitors of Plasmodium falciparum proliferation (AID 504749); also: nearly all actives have a fitted effect of over 60% in size
# conditionDetails: P. falciparum in erythrocytes, SYBR Green DNA, 72 h; series mostly up to 28.7 µM
Records with an inconclusive call do not appear. Calls of active or inactive are those of the source. Calls follow the shape of the dose curve; as a rule, active = well fitted inhibition curve with a large enough effect; inconclusive = small, poorly fitted or top-dose-only effect; inactive = flat fitted curve, though single readings scatter.
Possible outcomes: active, inactive

compound	groupLabel
COc1cc2c(cc1OC)C(c1ccccc1)CN(C)CC2 (stereo unspecified)	inactive
CN1C(=O)CCC1c1cccnc1 (stereo unspecified)	inactive
CC(C)C[C@H]1C(=O)N2CCCC2[C@]2(O)O[C@](NC(=O)[C@@H]3C=C4c5cccc6[nH]c(Br)c(c56)C[C@H]4N(C)C3)(C(C)C)C(=O)N12 (stereo partly specified)	active
CN=C(N)NCCCC(N)C(=O)O (stereo unspecified)	inactive
Oc1ccc(/C=C\c2cc(O)cc(O)c2)cc1	inactive
C=C1/C(=C\C=C2/CCC[C@]3(C)[C@@H]([C@H](C)CCCC(C)(C)O)CC[C@@H]23)C[C@@H](O)C[C@@H]1O	inactive

----------
# systemName: Mitogen-activated protein kinase 10 (Mus musculus) (UniProt Q61831)
# experimentDescription: JNK3 AlphaScreen Assay (AID 530);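 also: kinase came from lysate of stimulated human HepG2 cells; signal reports phosphorylation of biotinylated GST-cJun 1-79 at Ser73 with 10 µM ATP; % is scaled to controls: 0 for no effect and ±100 for the full control effect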
# conditionDetails: JNK3 lysate, c-Jun phosphorylation; series mostly up to 57.1 µM
Records with an inconclusive call do not appear. Activity calls are given as the source filed them. Calls follow the shape of the dose curve; as a rule, active = well fitted curve in either direction with a large enough effect (not every such curve was filed as active); inconclusive = small, poorly fitted or top-dose-only effect, or another doubt; inactive = flat fitted curve, though single readings scatter.
parameter: activity change, negative = inhibition

> print(dat)
                                    molecule                                systemname  assayvalue
 1  Cn1cc(-c2nc3cnc(N4CCOCC4)nc3n(C3CC3)c2=O)c2ccccc21  Mitogen-activated protein kinase 10 (Mus musculus) (UniProt Q61831)    inactive
 2  O=C(Oc1ccccc1)N1CCC[C@@]2(CCN(c3ncccn3)C2)C1  Mitogen-activated protein kinase 10 (Mus musculus) (UniProt Q61831)    inactive
 3  COCC(=O)N1CCC2(CCCN(C(=O)Nc3ccc(OC)cc3)C2)CC1  Mitogen-activated protein kinase 10 (Mus musculus) (UniProt Q61831)    inactive
 4  Cc1noc(C)c1C(=O)N1CCC2(CC1)CCN(c1cccc(-c3ccccc3)c1)CC2  Mitogen-activated protein kinase 10 (Mus musculus) (UniProt Q61831)    inactive
 5  N#Cc1cccc(-c2nc3cnc(Oc4cccc(Cl)c4)nc3n(C3CC3)c2=O)c1  Mitogen-activated protein kinase 10 (Mus musculus) (UniProt Q61831)    inactive
 6       c1csc(CNc2ncnc3ccc(-c4ccoc4)cc23)c1  Mitogen-activated protein kinase 10 (Mus musculus) (UniProt Q61831)    inactive
 7              CNc1ncnc2ccc(-c3ccccc3C)cc12  Mitogen-activated protein kinase 10 (Mus musculus) (UniProt Q61831)    inactive
 8           COc1ccccc1-c1cc(NCc2cccnc2)ncn1  Mitogen-activated protein kinase 10 (Mus musculus) (UniProt Q61831)    inactive
 9  CCCn1c(C)nc2c(NC(C)CN(C)C)nc(C)nc21 (configuration not stated)  Mitogen-activated protein kinase 10 (Mus musculus) (UniProt Q61831)    inactive
10  COc1ccc(CNc2ncnc3ccc(-c4cccc(C#N)c4)cc23)c(OC)c1  Mitogen-activated protein kinase 10 (Mus musculus) (UniProt Q61831)    inactive
11  CN1CCN(c2ncnc3ccc(-c4ccc5c(c4)OCO5)cc23)CC1  Mitogen-activated protein kinase 10 (Mus musculus) (UniProt Q61831)    inactive
12  O=C(c1ccco1)N1CCC[C@@]2(CCN(Cc3nccs3)C2)C1  Mitogen-activated protein kinase 10 (Mus musculus) (UniProt Q61831)    inactive
13    Cc1cnc(CNc2ccnc(-c3ccccc3CN(C)C)n2)cn1  Mitogen-activated protein kinase 10 (Mus musculus) (UniProt Q61831)    inactive
14  CS(=O)(=O)Nc1cccc(-c2cncnc2Nc2ccc(F)cc2)c1  Mitogen-activated protein kinase 10 (Mus musculus) (UniProt Q61831)    inactive
15  COCCn1c(=O)c(-c2ccc(OC)cc2)nc2cnc(N3CCNCC3)nc21  Mitogen-activated protein kinase 10 (Mus musculus) (UniProt Q61831)    inactive
16  COc1cccc(Cn2c(=O)c(-c3ccc(F)cc3)nc3cnc(N(C)C)nc32)c1  Mitogen-activated protein kinase 10 (Mus musculus) (UniProt Q61831)    inactive
17  Cc1noc(C)c1C(=O)N1CCC[C@@]2(CCN(c3ncccn3)C2)C1  Mitogen-activated protein kinase 10 (Mus musculus) (UniProt Q61831)    inactive
18  CS(=O)(=O)N1CCC[C@@]2(CCN(Cc3ccccc3)C2)C1  Mitogen-activated protein kinase 10 (Mus musculus) (UniProt Q61831)    inactive
19  N#Cc1ccc(CN2CCCC3(CCN(C(=O)c4cccc(F)c4)CC3)C2)cc1  Mitogen-activated protein kinase 10 (Mus musculus) (UniProt Q61831)    inactive
20     CN(C)C(=O)c1ccc(-c2cncnc2N2CCNCC2)cc1  Mitogen-activated protein kinase 10 (Mus musculus) (UniProt Q61831)    inactive
21            COc1ccccc1-c1cncnc1NCCN1CCOCC1  Mitogen-activated protein kinase 10 (Mus musculus) (UniProt Q61831)    inactive
22  CCCn1c(-c2ccc(F)cc2)nc2c(NCCCN(C)C)nc(C)nc21  Mitogen-activated protein kinase 10 (Mus musculus) (UniProt Q61831)    inactive

----------
# experimentDescription: qHTS Assay for Lipid Storage Modulators (AID 1519)
# conditionDetails: Drosophila S3 cells, BODIPY lipid droplet/cell ratio, laser cytometry; measured here: lipid channel max response; cells loaded with oleic acid
Inconclusive results are not listed.
max response of 10% or higher: 1.0. Under 10%: 0.0.

> print(dat)
                        smilesrepresentation  grouplabel
 1  CN1CCN(c2ncnc3ccc(-c4ccc(C(=O)N(C)C)cc4)cc23)CC1         1.0
 2  O=C(Oc1ccccc1)N1CCC2(CC1)CCN(c1ccccc1)CC2         0.0
 3  O=C(c1csnn1)N1CCC[C@@]2(CCN(c3ncccn3)C2)C1         1.0
 4   COCC(=O)N1CCC2(CC1)CN(Cc1ccc(C#N)cc1)C2         0.0
 5  CC(C)NC(=O)N1CCCC2(CCN(S(=O)(=O)c3ccccc3)CC2)C1         1.0
 6  Cn1cc(-c2nc3cncnc3n(Cc3ccc(F)cc3)c2=O)c2ccccc21         1.0
 7  CN(C)Cc1ccccc1-c1nc(NCc2cccs2)c2ccccc2n1         1.0
 8        Cc1noc(C)c1-c1cc(Nc2ccc(F)cc2)ncn1         1.0
 9            Cn1c(=O)cnc2cnc(Oc3ccccc3)nc21         1.0
10    O=c1c(-c2ccc(F)c(F)c2)nc2cncnc2n1C1CC1         1.0
11  O=C(Nc1cccc(F)c1)N1CC2(CCN(C(=O)c3csnn3)CC2)C1         0.0
